measurement.target: human CCR2 (Homo sapiens, UniProt P41597)
Sequence (P41597 whole entry): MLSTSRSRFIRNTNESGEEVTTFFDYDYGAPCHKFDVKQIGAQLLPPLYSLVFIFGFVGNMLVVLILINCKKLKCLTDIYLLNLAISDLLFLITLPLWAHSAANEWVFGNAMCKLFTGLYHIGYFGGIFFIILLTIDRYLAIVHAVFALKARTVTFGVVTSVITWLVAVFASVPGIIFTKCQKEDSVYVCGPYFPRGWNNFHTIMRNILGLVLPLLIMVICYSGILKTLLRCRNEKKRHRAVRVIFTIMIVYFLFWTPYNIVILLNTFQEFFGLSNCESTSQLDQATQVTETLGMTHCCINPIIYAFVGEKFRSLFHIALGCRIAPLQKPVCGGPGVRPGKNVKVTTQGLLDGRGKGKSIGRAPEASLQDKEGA
test: CCR2 binding assay ([125I]-MCP-1 displacement, SPA)
Set-up: expressed in transfected cells; host or cells: HEK293 EBNA cells (membrane preparation)
conditions.used: human CCR2-HEK293 EBNA membranes
parameter: Ki

The cases that follow already have their Ki on record.
# mol.smiles, measurement.target, Ki
rows = [
    ("Oc1c(Cc2cc(F)cc(C(F)(F)F)c2)c(C2CC2)nc2ccnn12", "human CCR2 (Homo sapiens, UniProt P41597)", "10 to 100 nM"),
    ("CCOC(=O)c1nc2ccnn2c(O)c1Cc1cccc(Cl)c1", "human CCR2 (Homo sapiens, UniProt P41597)", "100 to 1000 nM"),
    ("Oc1c(Cc2cccc(C(F)(F)F)c2)c(C2CC2)nc2ccnn12", "human CCR2 (Homo sapiens, UniProt P41597)", "10 to 100 nM"),
    ("CCc1nc2ccnn2c(O)c1Oc1ccc(Cl)c(Cl)c1", "human CCR2 (Homo sapiens, UniProt P41597)", "10 to 100 nM"),
]

Note: attention shifts to another entry.
# return recorded Ki for input Cc1nc2ccnn2c(O)c1Cc1ccc(Cl)cc1
100 to 1000 nM
